Provenance of the data: patent US20230365537A1

Entries and their [Aurora A IC50 (nM)]/[PLK4 IC50 (nM)] values follow.
assayed.target: human recombinant Aurora A (Homo sapiens (Human), UniProt O14965)
Sequence (O14965 whole entry): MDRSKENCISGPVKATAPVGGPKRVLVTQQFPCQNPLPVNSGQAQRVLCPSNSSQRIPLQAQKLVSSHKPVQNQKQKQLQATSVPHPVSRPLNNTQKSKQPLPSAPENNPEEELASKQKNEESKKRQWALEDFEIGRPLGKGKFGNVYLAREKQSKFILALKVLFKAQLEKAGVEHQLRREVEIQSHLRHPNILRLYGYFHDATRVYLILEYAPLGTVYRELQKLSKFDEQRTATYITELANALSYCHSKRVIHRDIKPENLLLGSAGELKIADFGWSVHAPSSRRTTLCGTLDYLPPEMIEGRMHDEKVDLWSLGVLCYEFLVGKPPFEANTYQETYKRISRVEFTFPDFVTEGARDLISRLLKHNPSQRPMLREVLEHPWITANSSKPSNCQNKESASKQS
measurement.description: Aurora A Kinase Biochemical Assay (ADP-Glo)
condition.description: ratio of Aurora A IC50 to PLK4 IC50 (selectivity)
reported.metric: [Aurora A IC50 (nM)]/[PLK4 IC50 (nM)]

> print(dat)
                                   compound                            assayed.target                        reported.metric  observed.result
1  COc1ccc2c(c1)[C@]1(C[C@H]1c1ccc3c(Nc4ncc(S(=O)(=O)N5CCC5)cc4OC)n[nH]c3c1)C(=O)N2 [Example 268]  human recombinant Aurora A (Homo sapiens (Human), UniProt O14965)  [Aurora A IC50 (nM)]/[PLK4 IC50 (nM)]             1159
2  COc1ccc2c(c1)[C@]1(C[C@H]1c1ccc3c(Nc4cn(CCO)nc4OC)n[nH]c3c1)C(=O)N2 [Example 50]  human recombinant Aurora A (Homo sapiens (Human), UniProt O14965)  [Aurora A IC50 (nM)]/[PLK4 IC50 (nM)]          361.809
3  COc1ccc2c(c1)[C@]1(C[C@H]1c1ccc3c(Nc4ccc(S(=O)(=O)N(C)C)nc4OC)n[nH]c3c1)C(=O)N2 [Example 222]  human recombinant Aurora A (Homo sapiens (Human), UniProt O14965)  [Aurora A IC50 (nM)]/[PLK4 IC50 (nM)]         446.1368
4  COc1ccc2c(c1)[C@]1(C[C@H]1c1ccc3c(Nc4cnc(P(C)(C)=O)cc4OC)n[nH]c3c1)C(=O)N2 [Example 249]  human recombinant Aurora A (Homo sapiens (Human), UniProt O14965)  [Aurora A IC50 (nM)]/[PLK4 IC50 (nM)]        2585.7077
5  COc1ccc2c(c1)[C@]1(C[C@H]1c1ccc3c(Nc4ncnc(N5CC(OC)C5)c4Cl)n[nH]c3c1)C(=O)N2 [Example 47]  human recombinant Aurora A (Homo sapiens (Human), UniProt O14965)  [Aurora A IC50 (nM)]/[PLK4 IC50 (nM)]         1879.416
6  COc1ccc2c(c1)[C@]1(C[C@H]1c1ccc3c(Nc4cc(C(C)C)nc(C)n4)n[nH]c3c1)C(=O)N2 [Example 151]  human recombinant Aurora A (Homo sapiens (Human), UniProt O14965)  [Aurora A IC50 (nM)]/[PLK4 IC50 (nM)]          61.2440
7  COc1ccc2c(c1)[C@]1(C[C@H]1c1ccc3c(Nc4cc(C)nn4C)n[nH]c3c1)C(=O)N2 [Example 74]  human recombinant Aurora A (Homo sapiens (Human), UniProt O14965)  [Aurora A IC50 (nM)]/[PLK4 IC50 (nM)]         293.0556

###

assayed.target: human recombinant Aurora A (Homo sapiens (Human), UniProt O14965)
measurement.description: Aurora A Kinase Biochemical Assay (ADP-Glo)
condition.description: ratio of Aurora A IC50 to PLK4 IC50 (selectivity)
Please enter condition met where [Aurora A IC50 (nM)]/[PLK4 IC50 (nM)] is greater than or equal to 1000, and condition not met where it is lower.

> print(dat)
                                input.smiles     discrete.label
 1  COc1ccc2c(c1)[C@]1(C[C@H]1c1ccc3c(Nc4nc(C5CC5)nc(N5CCOCC5)c4OC)n[nH]c3c1)C(=O)N2      condition met
 2  CCP(=O)(CC)c1ccc(OC)c(Nc2n[nH]c3cc([C@@H]4C[C@@]45C(=O)Nc4ccc(OC)cc45)ccc23)c1      condition met
 3  COc1ccc2c(c1)[C@]1(C[C@H]1c1ccc3c(Nc4ccnc(N5CCOCC5)c4OC)n[nH]c3c1)C(=O)N2      condition met
 4  COc1ccc2c(c1)[C@]1(C[C@H]1c1ccc3c(Nc4cc5oc(C)nc5cc4Cl)n[nH]c3c1)C(=O)N2  condition not met
 5  COc1ccc2c(c1)[C@]1(C[C@H]1c1ccc3c(Nc4ncc(S(=O)(=O)N(C)C5(C)COC5)cc4OC)n[nH]c3c1)C(=O)N2  condition not met
 6  COc1ccc2c(c1)[C@]1(C[C@H]1c1ccc3c(Nc4nc(C5CC5)nc(N5CC(O)C5)c4OC)n[nH]c3c1)C(=O)N2.O=C(O)C(F)(F)F      condition met
 7  COc1ccc2c(c1)[C@]1(C[C@H]1c1ccc3c(Nc4cc(C)ncc4Cl)n[nH]c3c1)C(=O)N2  condition not met
 8  COc1ccc2c(c1)[C@]1(C[C@H]1c1ccc3c(Nc4cc(N5CC(OC)C5)ncn4)n[nH]c3c1)C(=O)N2  condition not met
 9  COc1ccc2c(c1)[C@]1(C[C@H]1c1ccc3c(Nc4nc(C(C)C)nc(N5CCS(=O)(=O)CC5)c4Cl)n[nH]c3c1)C(=O)N2      condition met
10  COc1ccc2c(c1)[C@]1(C[C@H]1c1ccc3c(Nc4ncc(S(C)(=O)=O)cc4OC)n[nH]c3c1)C(=O)N2      condition met
11  COc1ccc2c(c1)[C@]1(C[C@H]1c1ccc3c(Nc4ncc(C(=O)N5CCC5)cc4OC)n[nH]c3c1)C(=O)N2      condition met
12  COc1ccc2c(c1)[C@]1(C[C@H]1c1ccc3c(Nc4cnc(C(=O)N(C)C)cc4OC)n[nH]c3c1)C(=O)N2  condition not met
13  COc1ccc2c(c1)[C@]1(C[C@H]1c1ccc3c(Nc4nc(C)ncc4OCC(F)F)n[nH]c3c1)C(=O)N2      condition met
